The measurements presented in this section are drawn from ChEMBL document CHEMBL1201862.

Tested on: K562
Assay: NCI tumour cell line growth inhibition, 48 h
The source made the active and inactive calls. No stated cut-off is given here; in the data, active = GI50 up to about 1.1 µM and inactive = higher.
Answer with one of the outcomes active, inactive

Just curious, what result did C[N+]1(C)CCCC(C#N)(c2ccccc2)CC1 (configuration not stated) get here?
inactive

O=[N+]([O-])c1cccc(/C=N/N=c2\ccc3ccccc3[nH]2)c1O , same question.
inactive

C[C@H](CN1CC(=O)NC(=O)C1)N1CC(=O)NC(=O)C1 , same question.
inactive

COC(=O)C(Cc1c[nH]c2ccccc12)NP(=O)(O)OCC1OC(n2cc(I)c(=O)[nH]c2=O)CC1O (configuration not stated) , same question.
inactive

Cn1c(=O)c2nc[nH]c2n(C)c1=O , same question.
inactive

COc1cc(C2C3=C(COC3=O)OC(C)(C)Oc3cc4c(cc32)OCO4)cc(OC)c1O (configuration not stated) , same question.
active

c1ccc(/N=C2\c3ccccc3C3=NCCCN32)cc1 , same question.
inactive

Cn1ccnc1SC(F)(F)c1nc2ccccc2o1 , same question.
inactive

COc1ccccc1N1C(=O)C2c3[nH]c4ccccc4c3C3CCC(C(C)(C)C)CC3C2C1=O (configuration not stated) , same question.
inactive

CN(C)C(=S)N/N=C\C(=N/NC(=S)N(C)C)c1ccccc1 , same question.
inactive

CC(C)CCNC(=O)c1ccc(CNC(=O)/C=C/c2ccc3ccccc3c2)cc1 , same question.
inactive

COCCCCCC(=O)CP(=O)(OC)OC , same question.
inactive

CCC(C)c1cccc(C)c1NC(=O)C(=O)Cc1nc2ccccc2s1 (configuration not stated) , same question.
inactive

CSc1nc(Cl)c2c(n1)Sc1nc3cc4c(cc3n1C2O)OCCO4 (configuration not stated) , same question.
active

CCCCC1C(=O)N(c2ccc(S(=O)(=O)Nc3ccccn3)cc2)N(c2ccc(O)c(C(=O)O)c2)C1=O (configuration not stated) , same question.
inactive

CC(=O)C(CN(CC(C)C)CC(C)C)C(c1ccccc1)c1c(O)c2ccccc2oc1=O (configuration not stated) , same question.
inactive

Cn1c(S)nc(C(N)=O)c1N , same question.
inactive

C/C=C1/C=CC2c3[nH]c4ccccc4c3CCN2C1 (configuration not stated) , same question.
inactive

Cc1nc(O)nc(N(CCO)/N=C/c2ccc(Cl)cc2)c1C(=O)Nc1ccc(Cl)cc1 , same question.
inactive

O=C1C2=C(C3=NCCc4c[nH]c1c43)C1(C=C(Br)C(O)C(Br)=C1)CCN2 (configuration not stated) , same question.
inactive

COC(=O)c1ccccc1C1CN=NC12Cc1cc(C)ccc1C2=O (configuration not stated) , same question.
inactive

C=CCN1CCC(O)(c2cc(C(=O)OCC)[nH]c2-c2cc(C)no2)C1 (configuration not stated) , same question.
inactive
